Reference source for all entries: patent US11319283B2

# TARGET_SYSTEM: IDO1 (Homo sapiens, UniProt P14902)
# Sequence (P14902 whole entry): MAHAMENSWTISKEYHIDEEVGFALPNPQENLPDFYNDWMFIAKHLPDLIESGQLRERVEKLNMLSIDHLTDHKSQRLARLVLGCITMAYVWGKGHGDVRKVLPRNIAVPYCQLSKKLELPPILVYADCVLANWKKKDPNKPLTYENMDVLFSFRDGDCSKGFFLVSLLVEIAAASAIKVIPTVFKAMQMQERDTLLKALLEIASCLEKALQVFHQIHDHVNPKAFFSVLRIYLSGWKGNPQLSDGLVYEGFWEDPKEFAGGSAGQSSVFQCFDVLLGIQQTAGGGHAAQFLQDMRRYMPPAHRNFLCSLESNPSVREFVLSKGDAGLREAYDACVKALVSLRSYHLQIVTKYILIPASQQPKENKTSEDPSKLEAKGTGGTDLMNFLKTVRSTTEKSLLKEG
# METHOD: IDO1 Human Whole Blood Assay
# Type: cell-based
# Design: from tissue; host or cells: human whole blood from healthy donors, stimulated with LPS and IFNγ
# EXPERIMENTAL_CONDITIONS: LPS and IFNγ 100 ng/mL, overnight (18 h), kynurenine by LC/MS/MS
QUANTITY_KIND: IC50 (µM)
Give the quantity in µM, number only.

Answered cases to consult:
>  <MOLECULE>
O=C(Nc1ccc(C2(C(=O)NC3CCC(F)(F)CC3)CCC2)cc1)c1cccc(Cl)c1

>  <IC50 / µM>
1.88

$$$$
>  <MOLECULE>
O=C(Nc1ccc(C2(C(=O)Nc3ccc(F)cn3)CCC2)cc1)c1cccc(Cl)c1

>  <IC50 / µM>
0.253

$$$$
>  <MOLECULE>
O=C(Nc1ccc(C2(C(=O)Nc3ccc(F)cc3)CC(F)(F)C2)cc1)c1cccc(Cl)c1

>  <IC50 / µM>
0.07

$$$$
>  <MOLECULE>
O=C(Nc1ccc(C2(C(=O)Nc3ccc(F)cn3)CCC2)cc1CO)c1cccc(Cl)c1

>  <IC50 / µM>
0.219

$$$$

`N#Cc1cccc(C(=O)Nc2ccc(C3(C(=O)Nc4ccc(Cl)nc4)CCC3)cc2)c1` has a reported IC50 of 0.057

`O=C(Nc1ccc(C2(C(=O)N[C@@H]3C[C@H]3C(F)(F)F)CCC2)cc1)c1cccc(Cl)c1` has a reported IC50 of 0.738

`Cn1ccc(NC(=O)C2(c3ccc(NC(=O)c4cccc(Cl)c4)cc3)CCC2)n1` has a reported IC50 of 1.6

====

# TARGET_SYSTEM: IDO1 (Homo sapiens)
# METHOD: IDO1 Cellular Assay in Hela Cells Stimulated with IFNγ
# Assay type: cell-based
# Parameters: endogenous in cells; host or cells: HeLa cells stimulated with IFNγ (100 ng/mL)
# EXPERIMENTAL_CONDITIONS: Hela cells stimulated with IFNγ 100 ng/mL, 300 uM L-tryptophan, about 48 hours, fluorescence readout
# Experimental: IDO1 Cellular Assay in Hela Cells Stimulated with IFNγ Hela cells were cultured in complete Hela culture medium (90% EMEM, 10% heat-inactivated fetal bovine serum) and expanded to about 1×10^9 cells. […] Frozen Hela cells were thawed and transferred into Hela assay medium (99% complete Hela culture medium, 1% Pen/Strep) with 20 mL medium/vial of cells. […] The cells were then counted and adjusted to a density of 2×10^5 cells/ml in Hela assay medium. […]
pIC50: −log10 of the molar value.
Returns criterion met if the recorded pIC50 is greater than or equal to 8, and criterion not met otherwise.

>  <COMPOUND>
O=C(Nc1ccc(C2(C(=O)Nc3ccc(F)cn3)CCC2)cc1)c1cccc(Cl)c1 [Example 28]

>  <CLASSIFICATION>
criterion met

$$$$

Lookup: Decide: is the reported value of pIC50 for CCOC1CC1NC(=O)C1(c2ccc(NC(=O)c3cccc(Cl)c3)cc2)CC(F)(F)C1 (centres unmarked) [Example 65] equal to or greater than 8?
Found: criterion not met

Lookup: Decide: is the reported value of pIC50 for O=C(Nc1ccc(C2(C(=O)Nc3ccc(F)cc3)CC(F)(F)C2)cc1)c1cccc(Cl)c1 [Example 63] equal to or greater than 8?
Found: criterion met

Lookup: Decide: is the reported value of pIC50 for O=C(Nc1ccc(C2(NC(=O)c3ccc(Cl)cc3)CCC2)cc1)c1cccc(Cl)c1 [Example 19] equal to or greater than 8?
Found: criterion met

Lookup: Decide: is the reported value of pIC50 for O=C(Nc1ccc(C2(C(=O)NCC3CC3)CCC2)cc1)c1cccc(Cl)c1 [Example 48] equal to or greater than 8?
Found: criterion not met

Lookup: Decide: is the reported value of pIC50 for O=C(Nc1ccc(C2(C(=O)NC3CN(CC(F)(F)F)C3)CCC2)cc1)c1cccc(Cl)c1 [Example 44] equal to or greater than 8?
Found: criterion not met

Lookup: Decide: is the reported value of pIC50 for O=C(Nc1ccc(C2(C(=O)N[C@H]3CCOC3)CCC2)cc1)c1cccc(Cl)c1 [Example 51] equal to or greater than 8?
Found: criterion not met

Lookup: Decide: is the reported value of pIC50 for Cn1ccc(NC(=O)C2(c3ccc(NC(=O)c4cccc(Cl)c4)cc3)CCC2)n1 [Example 35] equal to or greater than 8?
Found: criterion not met

====

# TARGET_SYSTEM: IDO1 (Homo sapiens, UniProt P14902)
# METHOD: IDO1 Cellular Assay in Hela Cells Stimulated with IFNγ
# Assay type: cell-based
# Set-up: endogenous in cells; host or cells: HeLa cells stimulated with IFNγ (100 ng/mL)
# EXPERIMENTAL_CONDITIONS: Hela cells stimulated with IFNγ 100 ng/mL, 300 uM L-tryptophan, about 48 hours, fluorescence readout
Each item that follows carries a reported pIC50.
A value of pIC50 is the negative decimal logarithm of a concentration given in moles per litre.

>  <MOLECULE>
CC1CC1NC(=O)C1(c2ccc(NC(=O)c3cccc(Cl)c3)cc2)CCC1 (centres unmarked) [Example 46]

>  <TARGET_SYSTEM>
IDO1 (Homo sapiens, UniProt P14902)

>  <pIC50>
7.89

$$$$

Item O=C(Nc1ccc(C2(C(=O)NCCC(F)(F)F)CCC2)cc1F)c1cccc(Cl)c1 [Example 82] was tested on IDO1 (Homo sapiens, UniProt P14902); the reported pIC50 is 6.93

Item O=C(Nc1ccc(C2(C(=O)Nc3ccc(F)cc3)CC(F)(F)C2)cc1)c1ccnc(C(F)(F)F)c1 [Example 76] was tested on IDO1 (Homo sapiens, UniProt P14902); the reported pIC50 is 7.70

Item O=C(Nc1ccc(C2(C(=O)NC3CC(F)(F)C3)CCC2)cc1)c1cccc(Cl)c1 [Example 38] was tested on IDO1 (Homo sapiens, UniProt P14902); the reported pIC50 is 7.51

====

Each item that follows carries a reported IC50.
# TARGET_SYSTEM: IDO1 (Homo sapiens, UniProt P14902)
# METHOD: IDO1 Cellular Assay in Hela Cells Stimulated with IFNγ
# Format: cell-based
# Set-up: endogenous in cells; host or cells: HeLa cells stimulated with IFNγ (100 ng/mL)
# EXPERIMENTAL_CONDITIONS: Hela cells stimulated with IFNγ 100 ng/mL, 300 uM L-tryptophan, about 48 hours, fluorescence readout
Give the quantity in nM, number only.

>  <MOLECULE>
CCCNC(=O)C1(c2ccc(NC(=O)c3cc(F)cc(Cl)c3)cc2)CCC1 [Example 79]

>  <IC50 (nM)>
11

$$$$

Item CCO[C@H]1C[C@H]1NC(=O)C1(c2ccc(NC(=O)c3cccc(Cl)c3)cc2)CC(F)(F)C1 [Example 66] was tested on IDO1 (Homo sapiens, UniProt P14902); the reported IC50 is 89

Item O=C(Nc1ccc(C2(NC(=O)c3ccc(Cl)cn3)CCC2)cc1)c1cccc(Cl)c1 [Example 9] was tested on IDO1 (Homo sapiens, UniProt P14902); the reported IC50 is 11

Item CCOC(C)CNC(=O)C1(c2ccc(NC(=O)c3cccc(Cl)c3)cc2)CCC1 (centres unmarked) [Example 45] was tested on IDO1 (Homo sapiens, UniProt P14902); the reported IC50 is 58

Item CC(NC(=O)C1(c2ccc(NC(=O)c3cccc(Cl)c3)cc2)CCC1)C1CCCO1 (centres unmarked) [Example 43] was tested on IDO1 (Homo sapiens, UniProt P14902); the reported IC50 is 660

Item O=C(Nc1ccc(C2(C(=O)Nc3ccc(F)cn3)CCC2)cc1CO)c1cccc(Cl)c1 [Example 85] was tested on IDO1 (Homo sapiens, UniProt P14902); the reported IC50 is 5

Item O=C(Nc1ccc(C2(NC(=O)c3ccc(Cl)cc3)CCC2)cc1)c1cncnc1 [Example 17] was tested on IDO1 (Homo sapiens, UniProt P14902); the reported IC50 is 108

Item Cn1ccnc1C(=O)NC1(c2ccc(NC(=O)c3cccc(Cl)c3)cc2)CCC1 [Example 6] was tested on IDO1 (Homo sapiens, UniProt P14902); the reported IC50 is 577

====

# TARGET_SYSTEM: UniProt P14902
# METHOD: IDO1 HEK293 Cellular Assay
# Assay type: cell-based
# EXPERIMENTAL_CONDITIONS: HEK293 cells transfected with Flag-IDO1 vector, 20-24 hours, fluorescence readout
Each item that follows carries a reported pIC50.
A value of pIC50 is the negative decimal logarithm of a concentration given in moles per litre.

Answered cases to consult:
>  <COMPOUND>
O=C(Nc1ccc(C2(NC(=O)c3cncnc3)CCC2)cc1)c1cccc(Cl)c1 [Example 18]

>  <TARGET_SYSTEM>
UniProt P14902

>  <pIC50>
7.04

$$$$
>  <COMPOUND>
O=C(Nc1ccc(C2(NC(=O)c3cscn3)CCC2)cc1)c1cccc(Cl)c1 [Example 14]

>  <TARGET_SYSTEM>
UniProt P14902

>  <pIC50>
7.64

$$$$
>  <COMPOUND>
O=C(Nc1ccc(C2(NC(=O)c3ncco3)CCC2)cc1)c1cccc(Cl)c1 [Example 12]

>  <TARGET_SYSTEM>
UniProt P14902

>  <pIC50>
7.80

$$$$
>  <COMPOUND>
O=C(Nc1ccc(C2(NC(=O)c3nccs3)CCC2)cc1)c1cccc(Cl)c1 [Example 15]

>  <TARGET_SYSTEM>
UniProt P14902

>  <pIC50>
7.85

$$$$

Next:
O=C(Nc1ccc(C2(NC(=O)c3ccc(Cl)cc3)CCC2)cc1)c1cncnc1 [Example 17] has a reported pIC50 of 6.90
